FYI, the data here is from patent US8952157B2.

# system tested: GST-Bcl-2 (Homo sapiens (Human))
# Sequence (P10415 whole entry): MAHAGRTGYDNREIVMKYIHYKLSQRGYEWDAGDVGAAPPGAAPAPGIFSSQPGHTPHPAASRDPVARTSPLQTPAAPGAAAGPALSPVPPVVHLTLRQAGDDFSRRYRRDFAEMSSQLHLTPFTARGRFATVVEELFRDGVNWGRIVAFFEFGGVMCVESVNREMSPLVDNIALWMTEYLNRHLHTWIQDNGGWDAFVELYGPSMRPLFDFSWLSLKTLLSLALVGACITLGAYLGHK
# method description: Time Resolved-Fluorescence Resonance Energy Transfer (TR-FRET) Bcl-2 binding assay
property name: pKi
// pKi: -log10(molar conc.)

The recorded pKi for CC1(C)CCC(CN2CCN(c3ccc(C(=O)NS(=O)(=O)c4ccc(N[C@H]5CC[C@H](N(C6CC6)C6CC6)CC5)c([N+](=O)[O-])c4)c(Oc4cc5cc[nH]c5cc4F)c3)CC2)=C(c2ccc(Cl)cc2)C1 [Example 334] is 9.71

The recorded pKi for CC1(C)CCC(CN2CCN(c3ccc(C(=O)NS(=O)(=O)c4cnc(N[C@H]5CC[C@H](N6CCOCC6)CC5)c(Br)c4)c(Oc4cc5cc[nH]c5cc4F)c3)CC2)=C(c2ccc(Cl)cc2)C1 [Example 307] is 9.28
